- SYSTEM: human cannabinoid receptor 1 (huCB1), full length, expressed on cells (human, UniProt P21554 1-472)
- Sequence (P21554 whole entry): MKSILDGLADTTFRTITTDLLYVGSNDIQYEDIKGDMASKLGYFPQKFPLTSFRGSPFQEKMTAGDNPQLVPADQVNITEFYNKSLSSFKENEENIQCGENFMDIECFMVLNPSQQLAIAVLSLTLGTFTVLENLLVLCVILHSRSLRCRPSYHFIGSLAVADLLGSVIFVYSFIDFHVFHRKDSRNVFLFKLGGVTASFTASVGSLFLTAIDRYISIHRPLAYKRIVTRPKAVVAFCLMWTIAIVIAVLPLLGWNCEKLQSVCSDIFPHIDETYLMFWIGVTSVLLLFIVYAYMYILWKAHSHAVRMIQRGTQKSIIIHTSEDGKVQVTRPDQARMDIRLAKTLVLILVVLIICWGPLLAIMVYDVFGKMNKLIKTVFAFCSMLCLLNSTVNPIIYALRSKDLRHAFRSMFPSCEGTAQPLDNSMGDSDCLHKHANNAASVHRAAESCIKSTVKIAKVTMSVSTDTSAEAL
- ASSAY_SUMMARY: cell-based or functional assay
The label depends only on n = 2 IC50 (nM), cAMP antagonist assay: yes (1) if it is at least 2 nM, no (0) if it is smaller.

Solved cases (3 shown):
>  <BINDER>
LIBC523603-1 (antibody, V domains shown) VH: QVQLQESGPGLVKPSQTLSLTCTVSGGSIRRGGDYWAWIRQHPGKGLEWIGHVYQSGQTAYNPNFENRATISVNTYKNQFSLKLSSVTAADTAVYYCARDYDAVSGYSYYYYGMDVWGQGTTVTVSS VL: DIVMTQSPLSLPVTPGEPASISCRSSQSLLSSYGNNYVDWYLQKPGQSPQLLIYQGSNRASGVPDRFSGSGSGTDFTLKISRVEAEDVGVYYCRQAVGLPRTFGQGTKVEIKR

>  <CLASS_LABEL>
yes (1)

$$$$
>  <BINDER>
LIBC528169-1 (antibody, V domains shown) VH: QVQLQESGPGLVKPSQTLSLTCTVSGGSIRRGGDYWSWIRQHPGKGLEWIGHIYQSGSTKYNPSFEDRATISVNTYKNQFSLKLSSVTAADTAVYYCARDYDILTGYSYYYYGMDVWGQGTTVTVSS VL: DIQLTQSPSTLSASVGDRVTITCRASQSISNYLNWYQQKPGKAPKLLIYAASSLHSGVPSRFSGSGSGTDFTLTISSLQPEDFASYYCQQYQSYPLTFGQGTKVEIKR

>  <CLASS_LABEL>
yes (1)

$$$$
>  <BINDER>
LIBC523862-1 (antibody, V domains shown) VH: QVQLQESGPGLVKPSQTLSLTCTVSGGSIRRGGDYWSWIRQHPGKGLEWIGHIYQTGSTAYNPSLKGRATISVNTYKNQFSLKLSSVTAADTAVYYCARDYDILTGYSYYYYGMDVWGQGTTVTVSS VL: DIVMTQSPLSLPVTPGEPASISCRSSQSLLHSTGANYVDWYLQKPGQSPQLLIYLGSNRASGVPDRFSGSGSGTDFTLKISRVEAEDVGVYYCRQAIALPRTFGQGTKVEIKR

>  <CLASS_LABEL>
yes (1)

$$$$

Now turn to the next binder.
## Input Entry LIBC527919-1 (antibody, V domains shown, Expressed as IgG1 SEFL2 mAb) VH: QVQLQESGPGLVKPSQTLSLTCTVSGGSIRRGGDYWAWIRQHPGKGLEWIGHVYQTGSTAYNPNFKDRATISVNTYKNQFSLKLSSVTAADTAVYYCARNYDALSGYSYYYYGMDVWGQGTTVTVSS VL: DIQLTQSPSSLSASVGDRVTITCRASQSIISYLNWYQQKPGKAPKLLIYAASSLRSGVPSRFSGSGSGTDFTLTISSLQPEDFATYYCQQYSNYPLTFGGGTRVEIKR : is its n = 2 IC50 (nM), cAMP antagonist assay no less than 2 nM?
## Output no (0)

Cited source for all entries: patent US20250277029A1
